experiment: Displacement of [3H]raclopride from D2-like dopaminergic receptor (unknown origin) in striatal membrane measured after 1 hr by liquid scintillation counting method; assay type: cell membranes, Homo sapiens, Striatum
pKi: −log10 of the molar value.
measurement-label: pKi

molecule	pKi
C/C=C/C1NCCc2cc(O)c(O)cc21 (stereo unspecified)	6.34
Oc1cc2c(cc1O)C(/C=C/c1ccccc1)NCC2 (stereo unspecified)	5.85
C/C=C/C1NCCc2cc(OC)c(OC)cc21 (stereo unspecified)	5.05

a: COc1cc2c(cc1OC)C(/C=C/c1ccccc1)NCC2 (stereo unspecified)
b: COc1cc2c(cc1OC)C(/C=C/c1ccccc1)N(C)CC2 (stereo unspecified)
c: C=CCN1CCc2cc(OC)c(OC)cc2C1/C=C/c1ccccc1 (stereo unspecified)
Query: Order field: pKi | Direction: descending (largest first) Put the labels in the requested order and write them down.
Reply: b, c, a
(b: 6.36, c: 5.93, a: 5.21)

* * *

assay: Displacement of [3H]raclopride from D2-like dopaminergic receptor (unknown origin) in striatal membrane measured after 1 hr by liquid scintillation counting method; type: cell membranes, Homo sapiens, Striatum
measurement-label: pKi

Look over these answered cases.
compound	readout-number
C=CCN1CCc2cc(O)c(O)cc2C1/C=C/C (stereo not drawn)	7.749
Oc1cc2c(cc1O)C(/C=C/c1ccccc1)NCC2 (stereo not drawn)	5.869
C/C=C/C1NCCc2cc(O)c(O)cc21 (stereo not drawn)	6.352
CN1CCc2cc(O)c(O)cc2C1/C=C/c1ccccc1 (stereo not drawn)	7.264

1: C/C=C/C1c2cc(OC)c(OC)cc2CCN1C (stereo not drawn)
2: C=CCN1CCc2cc(O)c(O)cc2C1/C=C/c1ccccc1 (stereo not drawn)
Query: Lower value of pKi belongs to which: 1 or 2 ? # answer = label of selected item
Reply: 1

* * *

species: Homo sapiens; experiment: Selectivity ratio of Ki for D1-like dopaminergic receptor (unknown origin) in striatal membranes to Ki for D2-like dopaminergic receptor (unknown origin) in striatal membranes; type: cell membranes
measurement-label: Ratio Ki

compound	readout-number
Oc1cc2c(cc1O)C(/C=C/c1ccccc1)NCC2 (stereo not drawn)	6.73
CN1CCc2cc(O)c(O)cc2C1/C=C/c1ccccc1 (stereo not drawn)	55.9
C/C=C/C1c2cc(OC)c(OC)cc2CCN1C (stereo not drawn)	1.24
NCCc1ccc(O)c(O)c1 [DOPAMINE]	0.98

a: C=CCN1CCc2cc(O)c(O)cc2C1/C=C/c1ccccc1 (stereo not drawn)
b: COc1cc2c(cc1OC)C(/C=C/c1ccccc1)N(C)CC2 (stereo not drawn)
Query: Between a and b , whose measured Ratio Ki reads higher? Indicate your choice by writing its label.
Reply: a
(a: 147, b: 14.2)

* * *

experiment: Displacement of [3H]SCH23390 from D1-like dopaminergic receptor (unknown origin) in striatal membrane measured after 1 hr by liquid scintillation counting method; format: cell membranes, Homo sapiens, Striatum
measurement-label: pKi

compound	pKi
C=CCN1CCc2cc(OC)c(OC)cc2C1/C=C/C (stereo not drawn)	4.432
C/C=C/C1c2cc(OC)c(OC)cc2CCN1C (stereo not drawn)	4.74
C/C=C/C1NCCc2cc(O)c(O)cc21 (stereo not drawn)	4.246
C=CCN1CCc2cc(O)c(O)cc2C1/C=C/C (stereo not drawn)	5.766
Oc1cc2c(cc1O)C(/C=C/c1ccccc1)NCC2 (stereo not drawn)	5.048
NCCc1ccc(O)c(O)c1 [DOPAMINE]	6.26
C=CCN1CCc2cc(OC)c(OC)cc2C1/C=C/c1ccccc1 (stereo not drawn)	5.133
C/C=C/C1c2cc(O)c(O)cc2CCN1C (stereo not drawn)	5.897
COc1cc2c(cc1OC)C(/C=C/c1ccccc1)NCC2 (stereo not drawn)	5.36
C=CCN1CCc2cc(O)c(O)cc2C1/C=C/c1ccccc1 (stereo not drawn)	5.267
CN1CCc2cc(O)c(O)cc2C1/C=C/c1ccccc1 (stereo not drawn)	5.498
C/C=C/C1NCCc2cc(OC)c(OC)cc21 (stereo not drawn)	4.347
COc1cc2c(cc1OC)C(/C=C/c1ccccc1)N(C)CC2 (stereo not drawn)	5.251

* * *

test: Induction of apoptosis in human neutrophils assessed as early apoptotic cells at 30 uM measured after 24 hrs by Annexin-V-FITC/propidium iodide staining-based flow cytometric analysis (reference value: 1.1%); assay type: cell-based; settings: neutrophil
measurement-label: Activity (%)
Write down the numeric answer in % and omit the unit.

Consider the following illustrative entries.
compound	measurement-label	units	readout-number
CN1CCc2cc(O)c(O)c3c2C1CC3c1ccccc1 (configuration not stated)	Activity	%	0.15
C/C=C/C1c2cc(O)c(O)cc2CCN1C (configuration not stated)	Activity	%	3.95
Oc1cc2c3c(c1O)C(c1ccccc1)CC3NCC2 (configuration not stated)	Activity	%	0.08
CN1CCc2cc(O)c(O)cc2C1/C=C/c1ccccc1 (configuration not stated)	Activity	%	3.24
C=CCN1CCc2cc(O)c(O)cc2C1/C=C/c1ccccc1 (configuration not stated)	Activity	%	0.15
C=CCN1CCc2cc(O)c(O)c3c2C1CC3c1ccccc1 (configuration not stated)	Activity	%	6.86

API: the following record is the query input.
Query: Quote Activity reported for C=CCN1CCc2cc(O)c(O)cc2C1/C=C/C (configuration not stated) please.
Reply: 0.28

* * *

assay: Induction of apoptosis in human neutrophils assessed as viable cells at 30 uM measured after 24 hrs by Annexin-V-FITC/propidium iodide staining-based flow cytometric analysis (reference value: 93.52%); format: cell-based, Neutrophil; conditions: read-out: Activity
measurement-label: viability at 24 h, 30 µM (%)
Your answer is read as %, so omit the unit and give the number.

Query: Note viability at 24 h, 30 µM for the compound shown: C=CCN1CCc2cc(O)c(O)cc2C1/C=C/C (configuration not stated)
Reply: 93.5

Query: Give viability at 24 h, 30 µM for the following compound: CN1CCc2cc(O)c(O)cc2C1/C=C/c1ccccc1 (configuration not stated)
Reply: 89.7

Query: Supply reported viability at 24 h, 30 µM belonging to this compound: CN1CCc2cc(O)c(O)c3c2C1CC3c1ccccc1 (configuration not stated)
Reply: 94.7

Query: Recall and state the measured viability at 24 h, 30 µM for C=CCN1CCc2cc(O)c(O)c3c2C1CC3c1ccccc1 (configuration not stated) .
Reply: 89.9

Query: Using known records, supply viability at 24 h, 30 µM for Oc1cc2c3c(c1O)C(c1ccccc1)CC3NCC2 (configuration not stated)
Reply: 95.3

Query: Report viability at 24 h, 30 µM, nothing else, for this compound: C=CCN1CCc2cc(O)c(O)cc2C1/C=C/c1ccccc1 (configuration not stated)
Reply: 93.6

Query: Quickly give me recorded viability at 24 h, 30 µM for C/C=C/C1c2cc(O)c(O)cc2CCN1C (configuration not stated)
Reply: 93.3

* * *

Below, each entry is listed with its recorded Activity.
assay: Induction of apoptosis in human neutrophils assessed as necrotic cells at 30 uM measured after 24 hrs by Annexin-V-FITC/propidium iodide staining-based flow cytometric analysis (reference value: 5.33%); type: cell-based; conditions: neutrophil
Give a bare numeral; the unit % is implied.

Query: Specify measured Activity for CN1CCc2cc(O)c(O)c3c2C1CC3c1ccccc1 (configuration not stated) .
Reply: 5.05

Query: Write down Activity measured for item Oc1cc2c3c(c1O)C(c1ccccc1)CC3NCC2 (configuration not stated)
Reply: 4.53

Query: Read the entry C=CCN1CCc2cc(O)c(O)c3c2C1CC3c1ccccc1 (configuration not stated) and write its reported Activity.
Reply: 3.03

Query: Supply reported Activity belonging to this compound: C=CCN1CCc2cc(O)c(O)cc2C1/C=C/c1ccccc1 (configuration not stated)
Reply: 6.11

Query: Fill in reported Activity for this entry: C=CCN1CCc2cc(O)c(O)cc2C1/C=C/C (configuration not stated)
Reply: 0.1

Query: Query Activity for C/C=C/C1c2cc(O)c(O)cc2CCN1C (configuration not stated)
Reply: 2.43

Query: Identify measured Activity corresponding to CN1CCc2cc(O)c(O)cc2C1/C=C/c1ccccc1 (configuration not stated)
Reply: 6.94

* * *

assay: Displacement of [3H]raclopride from D2-like dopaminergic receptor (unknown origin) in striatal membrane measured after 1 hr by liquid scintillation counting method; assay type: cell membranes, Homo sapiens, Striatum
pKi: −log10 of the molar value.
measurement-label: pKi

P: C=CCN1CCc2cc(O)c(O)cc2C1/C=C/C (configuration not stated)
Q: C=CCN1CCc2cc(O)c(O)cc2C1/C=C/c1ccccc1 (configuration not stated)
R: NCCc1ccc(O)c(O)c1
S: C/C=C/C1c2cc(OC)c(OC)cc2CCN1C (configuration not stated)
Query: Put these in order: smallest pKi first, largest last. // rank by listing labels in the order requested
Reply: S, R, Q, P

* * *

assay: Induction of apoptosis in human neutrophils assessed as late apoptotic cells at 30 uM measured after 24 hrs by Annexin-V-FITC/propidium iodide staining-based flow cytometric analysis (reference value: 0.06%); format: cell-based; conditions: neutrophil
The entries below come with measured Activity values attached.
Write it as a number; the unit % goes unstated.

Sample records with Activity:
molecule	units	Activity
C/C=C/C1c2cc(O)c(O)cc2CCN1C (configuration not stated)	%	0.3
CN1CCc2cc(O)c(O)c3c2C1CC3c1ccccc1 (configuration not stated)	%	3.06
C=CCN1CCc2cc(O)c(O)cc2C1/C=C/C (configuration not stated)	%	0.11
Oc1cc2c3c(c1O)C(c1ccccc1)CC3NCC2 (configuration not stated)	%	0.05
CN1CCc2cc(O)c(O)cc2C1/C=C/c1ccccc1 (configuration not stated)	%	0.12

Query: Specify measured Activity for C=CCN1CCc2cc(O)c(O)cc2C1/C=C/c1ccccc1 (configuration not stated) .
Reply: 0.16

Query: Input C=CCN1CCc2cc(O)c(O)c3c2C1CC3c1ccccc1 (configuration not stated) , output reported Activity.
Reply: 0.33

Value source: ChEMBL document CHEMBL3865785
